Just for reference, patent US20050058639A1 is where these values come from.

molecular target: T1, recombinant human MCP-4 (human, UniProt Q99616 24-98, limits assumed); assay: ELISA, coated antigen
T1 construct: also called rhMCP-4
T1 sequence (Q99616 24-98 limits assumed): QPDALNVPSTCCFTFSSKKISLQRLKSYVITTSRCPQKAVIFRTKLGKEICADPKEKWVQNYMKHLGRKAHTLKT
In this section, each of the binders is paired with its reported ELISA OD.
The response must be a number in OD450 with no trailing unit.

anti-MCP-1 mAb 1.1.1 (antibody, human IgG2, kappa, V domains shown) VH: QVQLVQSGAEVKKPGASVKVSCKVSGYTLTELSMHWVRQAPGNGLEWMGGFDPEDGETIYAQRFQGRVVMTEDPSTDTAYMELSSLRSEDTAVYYCATNEFWSGYFDYWGQGTLVTVSS VL: DIVMTQSPDSLAMSLGERATINCKSSQSVLYSSNNKNYLVWYQQKPGQPPKLLIYWASIRESGVPDRFSSSGSETDFTLTISSLQAEDVAVYYCQQYFSSPWTFGQGTKVEIKR = 0.052
anti-MCP-1 mAb 1.8.1 (antibody, V domains shown) VH: QVQLVQSGAEVKKPGASVKVSCKVSGHIFTELSIHWVRQAPGKGLEWMGGFDPEDGETIYAQKFQGRVTMTEDTSTDTVYMELSSLRSEDTAVYYCATNDFWSGYFDYWGQGTLVTVSS VL: DIVMTQSPGSLAVSLGERATINCKSSQSILFRSNNKNYLTWYQQKPGQPPKLLIYWASIRESGVPDRFSGSGSGSNFTLTITSLQAEDVAIYYCQQYYSSPWTFGQGTKVEIKR = 0.046

Next binder, ELISA OD to be filled in.
Please fill in: ELISA OD reported for anti-MCP-1 mAb 1.6.1 (antibody, V domains shown) VH: QVQLVQSGAEVKKPGASVKVSCKVSGYTLTELSMHWVRQAPGKGLEWMGGFDPEDGETIYAQKFQGRVTMTEDTSTDTAYMELSSLRSEDTAVYYCATWYSGIYLAFDIWGQGTMVTVSS VL: EIVLTQSPDFQSVTPKEKVTITCRASQSIGSSLHWYQQKPDQSPKLLIKYASQSFSGVPSRFSGSGSGTDFTLTINSLEAEDAATYYCHQSSSLPHTFGGGTKVEIKR = 0.044
